The measurements presented in this section are drawn from PubChem BioAssay (NCATS).

assay: Identifying Small Molecule Inhibitors of Pancreatic Cancer Stem Cells (A278, Adherent) (AID 1259361); settings: series mostly up to 46.1 µM;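 further: viability read after 48 h compound exposure; nearly all actives have a fitted effect of over 35% in size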
Inconclusive results are not listed. The source made the active and inactive calls. The call rests on the fitted dose curve; in most records, active means well fitted cell-killing curve with a large enough effect; inconclusive means small, poorly fitted or top-dose-only effect; inactive means flat fitted curve, though single readings scatter.
Field 'call' accepts label 1 (active), label 0 (inactive)

# count of solved cases: 2
CC(C)(C)COc1ccc(-n2cc(C(=O)O)cn2)cc1C#N :: label 0
CN(C)C1CCN(C(=O)c2ccc(NC(=O)Nc3nc(N4CCOCC4)nc(N4CCOCC4)n3)cc2)CC1 :: label 1

We now examine a further compound.
Hey, what did the test say about CC(C)(C(=O)NCC(F)(F)C(F)(F)F)C(=O)N[C@@H]1C(=O)Nc2ccccc2-c2ccccc21 ?
label 0

====

assay: NS1 protein of Zika virus - qHTS assay to identify small molecule inhibitors in human HEK 293 cells (AID 1347053); conditions: HEK293 ZIKV MR766 infection, NS1 TR-FRET, 24 h; series mostly up to 46.1 µM; further: nearly all actives have a fitted effect of over 55% in size; further: potency means the concentration at half of the fitted maximal effect
Results filed as inconclusive are left out. Calls of active or inactive are those of the source. The call rests on the fitted dose curve; in most records, active means well fitted inhibition curve with a large enough effect; inconclusive means small, poorly fitted or top-dose-only effect; inactive means no such curve, though single readings can be large or run the other way.
test_readout: Potency

# count of solved cases: 8
CC(C)(C)COc1ccc(-n2cc(C(=O)O)cn2)cc1C#N :: inactive
O=C(O)CCC1CCC(c2cc(F)ccc2F)(S(=O)(=O)c2ccc(Cl)cc2)CC1 (stereo not drawn) :: inactive
C[C@H](NC(=O)C(=O)Nc1ccccc1C(C)(C)C)C(=O)N[C@@H](CC(=O)O)C(=O)COc1c(F)c(F)cc(F)c1F :: inactive
COC(=O)[C@@H]1[C@H]2C[C@H]3c4[nH]c5ccccc5c4CCN3C[C@@H]2CC[C@@H]1O :: inactive
CC(=NNC(=S)N1CCC1)c1ccccn1 :: 16.6 µM (active)
Cc1ccc(C(=O)Nc2cccc(C(F)(F)F)c2)cc1Nc1nc(-c2cccnc2)nc2c1cnn2C :: 14.8 µM (active)
COc1ccc(-c2oc3c(CC=C(C)C)c(OC4O[C@H](CO)[C@@H](O)[C@H](O)[C@@H]4O)cc(O)c3c(=O)c2OC2O[C@@H](C)[C@H](O)[C@@H](O)[C@@H]2O)cc1 (stereo partly drawn) :: 18.7 µM (active)
CCOC(=O)O[C@]1(C(=O)OCCl)CC[C@@H]2[C@H]3CCC4=CC(=O)C=C[C@]4(C)[C@@H]3[C@@H](O)C[C@@]21C :: inactive

Provide one value: measured Potency of COc1ccc(-n2c(C)c([N+](=O)[O-])c3ccc(O)cc32)cc1
inactive

====

experiment: qHTS of pediatric cancer cell lines to identify multiple opportunities for drug repurposing: Primary screen for U-2 OS cells (AID 1347096); conditions: U-2 OS viability, CellTiter-Glo luminescence, 48 h; series mostly up to 46 µM; further: nearly all actives have a fitted effect of over 50% in size
Results filed as inconclusive are left out. Activity calls are given as the source filed them. The call rests on the fitted dose curve; in most records, active means well fitted cell-killing curve with a large enough effect; inconclusive means small, poorly fitted or top-dose-only effect; inactive means flat fitted curve, though single readings scatter.
Field 'call' accepts active, inactive

C[C@]12CC[C@@H]3c4ccc(O)cc4C[C@@H](CCCCCCCCCS(=O)CCCC(F)(F)C(F)(F)F)[C@H]3[C@H]1CC[C@H]2O (stereo partly specified) :: inactive
CC[C@]1(O)C[C@@H]2CN(CCc3c([nH]c4ccccc34)[C@@](C(=O)OC)(c3cc4c(cc3OC)N(C=O)[C@@H]3C45CCN4CC=C[C@](CC)([C@H]45)[C@@H](OC(C)=O)[C@]3(O)C(=O)OC)C2)C1 (stereo partly specified) :: inactive

Hey, what did the test say about CC(C)(Cc1ccc2ccccc2c1)NC[C@@H](O)COc1cccc(Cl)c1C#N ?
inactive

Hey, what did the test say about CC(=O)N[C@@H](CS)C(=O)O ?
inactive

Hey, what did the test say about CC1=C(/C=C/C(C)=C/C=C/C(C)=C/C(=O)Nc2ccc(O)cc2)C(C)(C)CCC1 ?
active

Hey, what did the test say about C[C@@H](O)[C@H]1C(=O)N2C(C(=O)O)=C(S[C@@H]3CN[C@H](C(=O)N(C)C)C3)[C@H](C)[C@H]12 ?
inactive

Hey, what did the test say about CC=CCC=CCCC(=O)[C@H]1O[C@@H]1C(N)=O ?
inactive

Hey, what did the test say about COc1cc2c(cc1OC)CN(CCc1ccc(NC(=O)c3cc(OC)c(OC)cc3NC(=O)c3cnc4ccccc4c3)cc1)CC2 ?
inactive

Hey, what did the test say about CC(=O)O[C@]1(C(C)=O)CC[C@H]2[C@@H]3C=C(Cl)C4=CC(=O)[C@@H]5C[C@@H]5[C@]4(C)[C@H]3CC[C@@]21C ?
inactive

Hey, what did the test say about OC[C@H]1O[C@@H](Oc2cc(O)cc(C=Cc3ccc(O)cc3)c2)[C@H](O)[C@@H](O)[C@H]1O ?
inactive

Hey, what did the test say about C[N+]1(C)[C@@H]2CC(OC(=O)[C@H](CO)c3ccccc3)C[C@H]1[C@H]1O[C@@H]12 (stereo partly specified) ?
inactive

====

system: Tov112D; test: Primary qHTS to identify gynecologic anti-cancer compounds using libraries of approved drugs and bioactive compounds (AID 1345084); details: Gynecologic cancer cell panel viability, ATPlite luminescence, 48 h; series mostly up to 57.5 µM; further: nearly all actives have a fitted effect of over 55% in size
Records with an inconclusive call do not appear. Calls of active or inactive are those of the source. Calls come from the whole dose curve; as a rule, active = well fitted cell-killing curve with a large enough effect; inconclusive = small, poorly fitted or top-dose-only effect, or effect the other way; inactive = flat fitted curve, though single readings scatter.
Field 'call' accepts 1 (yes) for active, 0 (no) for inactive

Cc1nc(N)sc1-c1ccnc(Nc2ccc(N3CCOCC3)cc2)n1 :: 1 (yes)
O=C(NC1CCOCC1)c1ccc(-c2cc(-c3cn[nH]c3-c3ccccn3)ccn2)cc1 :: 0 (no)
COc1cc2ncnc(Nc3ccc(F)c(Cl)c3)c2cc1OCCCN1CCOCC1 :: 0 (no)

Hey, what did the test say about CCCNC(=O)NS(=O)(=O)c1ccc(Cl)cc1 ?
0 (no)

Hey, what did the test say about CCN(CC)CCOC(=O)c1ccc(N)cc1 ?
0 (no)

Hey, what did the test say about CCS(=O)(=O)N1CC(CC#N)(n2cc(-c3ncnc4[nH]ccc34)cn2)C1 ?
0 (no)

Hey, what did the test say about OC[C@@H](O)[C@H](O)[C@H](O)[C@@H](O)CO ?
0 (no)

Hey, what did the test say about CCn1c(C(=O)N(C2CC2)C2CC2)cc2c3c(ncn3C)c(Nc3cc(C)n(C)n3)nc21 ?
0 (no)

Hey, what did the test say about CNC(=O)c1ccc2cc(C3(O)CCn4cncc43)ccc2c1 (centres undefined) ?
0 (no)

Hey, what did the test say about CN(C)CCC(c1ccccc1)c1ccccn1 (centres undefined) ?
0 (no)

Hey, what did the test say about CC(C)OC(=O)C(C)(C)Oc1ccc(C(=O)c2ccc(Cl)cc2)cc1 ?
0 (no)

====

assay: qHTS of pediatric cancer cell lines to identify multiple opportunities for drug repurposing: Primary screen for control Hh wild type fibroblast cells (AID 1347106); conditions: Hh wild-type fibroblast viability, CellTiter-Glo luminescence, 48 h; series mostly up to 46 µM;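 further: on the % scale 0 is the no-effect control and ±100 the full control effect; a drop in luminescence marks cytotoxicity and a rise apparent proliferation; nearly all actives have a fitted effect of over 55% in size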
Inconclusive results are not listed. Calls of active or inactive are those of the source. Calls follow the shape of the dose curve; as a rule, active = well fitted cell-killing curve with a large enough effect; inconclusive = small, poorly fitted or top-dose-only effect; inactive = flat fitted curve, though single readings scatter.
test_readout: outcome

COc1ccc2c(Oc3ccc(NC(=O)c4c(C)n(CC(C)(C)O)n(-c5ccccc5)c4=O)nc3)ccnc2c1 :: inactive
COc1cc2c(cc1OC)CN(CCc1ccc(NC(=O)c3cc(OC)c(OC)cc3NC(=O)c3cnc4ccccc4c3)cc1)CC2 :: inactive
COc1cccc2c1CCCC2CCCN1CCN(C2CCCCC2)CC1 (stereo not given) :: inactive
CN(C[C@@H]1COCCO1)S(=O)(=O)Nc1ccc2ccc3ncc(-c4cnn(C)c4)cc3c(=O)c2c1 :: inactive

Provide one value: measured outcome of CC1(C)CCC(CN2CCN(c3ccc(C(=O)NS(=O)(=O)c4ccc(NCC5CCOCC5)c([N+](=O)[O-])c4)c(Oc4cnc5[nH]ccc5c4)c3)CC2)=C(c2ccc(Cl)cc2)C1
inactive

====

The entries below are paired with their reported parasite growth remaining, % of DMSO control (lower = more inhibition).
Experiment: qHTS profiling of the MIPE4 collection as inhibitors of Plasmodium falciparum (DD2) proliferation (AID 743345)
Settings: P. falciparum Dd2 in erythrocytes, SYBR Green DNA, 72 h; at 28.5 µM (top of the series) unless noted
Method: Plasmodium falciparum is a virulent malarial parasite that kills 1-2 million people worldwide each year. […] Because mature erythrocytes lack DNA, only Plasmodium-derived DNA is detected. The SYBR Green viability assay was adapted from a method described previously (Plouffe et al., 2008). […] The following morning, fluorescence intensity at 485(14) nm excitation and 535(25) nm emission wavelengths was measured on an EnVision (Perkin Elmer) plate reader. […]
Give the value in % but do not write % after it.

Provide one value: measured parasite growth remaining, % of DMSO control (lower = more inhibition) of O=C(O)c1ccc(-c2c[nH]c3ncc(-c4ccccc4)cc23)cc1C1CCCC1
8.18

====

test: Quantitative High-Throughput drug screen in 47 multiple myeloma cell lines against the NCATS MIPE library collection: RPMI8226_ATCC cell viability assay (AID 1919871); conditions: RPMI8226 myeloma viability, CellTiter-Glo ATP luminescence, 48 h; series mostly up to 45.8 µM; further: nearly all actives have a fitted effect of over 30% in size
Results filed as inconclusive are left out. Activity calls are given as the source filed them. Calls follow the shape of the dose curve; as a rule, active = well fitted cell-killing curve with a large enough effect; inconclusive = small, poorly fitted or top-dose-only effect, or effect the other way; inactive = no such curve, though single readings can be large or run the other way.
Field 'call' accepts active, inactive

NC(CO)(CO)CCc1ccc(Sc2cccc(OCc3ccccc3)c2)cc1Cl :: active

Hey, what did the test say about C[N+]1(C)[C@@H]2CC(OC(=O)[C@H](CO)c3ccccc3)C[C@H]1[C@H]1O[C@@H]12 (stereo partly drawn) ?
inactive

Hey, what did the test say about CON=C(C(=O)N[C@@H]1C(=O)N2C(C(=O)OCOC(=O)C(C)(C)C)=C(C=Cc3scnc3C)CS[C@H]12)c1csc(N)n1 ?
inactive
